Test system: CCRIS mutagenicity, Ames/micronucleus/aberration tests
Assay: CCRIS mutagenicity studies
Conditions: Test System: AMES SALMONELLA TYPHIMURIUM; Strain/Indicator: TA100; Metabolic Activation: NONE; Method: STANDARD PLATE
Description: The CCRIS database contains chemical records with carcinogenicity, mutagenicity, tumor promotion, and tumor inhibition test results. It was developed by the National Cancer Institute (NCI). Data are derived from studies cited in primary journals, current awareness tools, NCI reports, and other sources. Test results have been reviewed by experts in carcinogenesis and mutagenesis. CCRIS provides historical information from the years 1985 - 2011. It is no longer updated. […]
Active and inactive are the calls of the source. No rule for the calls is given here.
Your response should consist of one outcome taken from 1 (active), 0 (inactive)

Problem: Returns: the outcome recorded for `CC(=O)Oc1c(OC(C)=O)c2c([N+](=O)[O-])ccc3c4ccccc4c4cccc1c4c23` in this assay.
Result: 1

Problem: Also, `CC(=O)Oc1ccccc1C(=O)O` please.
Result: 0

Problem: Also, `C=C(C)C(=O)OCCOCCOCCOC(=O)C(=C)C` please.
Result: 0

Problem: Also, `CNC(=O)ON(C(C)=O)C(=O)NC` please.
Result: 0

Problem: Also, `CN(C)N=Nc1ccc([N+](=O)[O-])cc1` please.
Result: 1

Problem: Also, `C=C[Si](C)(C)CCl` please.
Result: 0

Problem: Also, `Cc1ccc(/C=C/c2ccc(N)cc2)cc1` please.
Result: 0

Problem: Also, `ClCc1ccncc1` please.
Result: 0

Problem: Also, `COc1nsc2ccc([N+](=O)[O-])cc12` please.
Result: 1

Problem: Also, OC1C[C@]23C=CC=C[C@@]2(C1)O3 (stereo partly specified) please.
Result: 0

Problem: Also, `CC(C)(Br)C(=O)NCc1ccccc1` please.
Result: 0

Problem: Also, `OCc1cc2cccc3ccc4cc5ccccc5c1c4c32` please.
Result: 0

Problem: Also, `O=C/C=C/C=C/C=O` please.
Result: 0

Problem: Also, `Cc1cccc(O)c1N` please.
Result: 0

Problem: Also, `CC(=O)c1ccc[nH]1` please.
Result: 0

Problem: Also, c1ccc2c(c1)C1CCCCC1[C@@H]1O[C@@H]21 (stereo partly specified) please.
Result: 0

Problem: Also, `O=[N+]([O-])c1ccc2c(c1)Cc1cc([N+](=O)[O-])ccc1-2` please.
Result: 1

Problem: Also, `ClC1=C(Cl)[C@]2(Cl)[C@@H]3[C@H]4C[C@H]([C@@H]5O[C@H]45)[C@@H]3[C@@]1(Cl)C2(Cl)Cl` please.
Result: 0

Problem: Also, `CC(C)Oc1ccc2c(=O)c(-c3ccccc3)coc2c1` please.
Result: 0

Problem: Also, `OCc1ccc(F)cc1` please.
Result: 0

Problem: Also, `CC(C)CCC[C@@H](C)[C@H]1CC[C@H]2[C@@H]3C(=O)C=C4C[C@@H](O)CC[C@]4(C)[C@H]3CC[C@]12C` please.
Result: 0

Problem: Also, `CCNc1nc(Cl)nc(NCC)n1` please.
Result: 0

Problem: Also, `O=c1c(O)c(-c2ccc(O)c(O)c2)oc2cc(O)cc(O)c12` please.
Result: 1

Problem: Also, `O=CC(=C(Cl)Cl)C(Cl)Cl` please.
Result: 1

Problem: Also, `COC(=O)c1cc(OC)c2c(c1-c1c(C(=O)OC)cc(OC)c3c1OCO3)OCO2` please.
Result: 0

Problem: Also, `COc1ccc(-c2nc(-c3ccccc3)c(-c3ccccc3)[nH]2)cc1` please.
Result: 1

Problem: Also, `O=C1OCC(CBr)=C1Br` please.
Result: 1

Problem: Also, CCCCC(CC)COP(=O)(OCC(CC)CCCC)OCC(CC)CCCC (stereo unspecified) please.
Result: 0

Problem: Also, `CCO[Si](OCC)(OCC)OCC` please.
Result: 0

Problem: Also, `O=[N+]([O-])c1cc2[nH]c3ccc4ccc(O)cc4c3c2c2ccccc12` please.
Result: 1

Problem: Also, `N[C@@H](CCC(=O)N[C@@H](CS/C(Cl)=C(\Cl)C(Cl)=C(Cl)Cl)C(=O)NCC(=O)O)C(=O)O` please.
Result: 0

Problem: Also, `Cc1ccc(C)cc1` please.
Result: 0

Problem: Also, `O=C(O)CCC(=O)Nc1cc(Cl)cc(Cl)c1` please.
Result: 0

Problem: Also, `CSCC[C@H](NC(=O)[C@@H](N)Cc1c[nH]c2ccccc12)C(=O)N[C@@H](CC(=O)O)C(=O)N[C@@H](Cc1ccccc1)C(N)=O` please.
Result: 0

Problem: Also, `Cc1ccc(N)c(O)c1` please.
Result: 1

Problem: Also, O=NN(c1ccc([N+](=O)[O-])cc1)C1OC[C@@H](O)[C@H](O)[C@H]1O (stereo partly specified) please.
Result: 1

Problem: Also, `CC(C)C(=O)Nc1snc2cc(Cl)ccc12` please.
Result: 0

Problem: Also, `O=C(CCNNC(=O)c1ccncc1)NCc1ccccc1` please.
Result: 1

Problem: Also, `O=c1cc(-c2ccccc2)cc(-c2ccccc2)n1/N=C/c1ccc([N+](=O)[O-])o1` please.
Result: 1

Problem: Also, COP(=O)(NC(C)=O)SC (stereo unspecified) please.
Result: 0

Problem: Also, `O=C(O)COc1ccc(Cl)cc1` please.
Result: 0

Problem: Also, `Cc1cc(C)c(N)c(C)c1N` please.
Result: 1

Problem: Also, `CCCCCOc1ccc(N=O)cc1` please.
Result: 1

Problem: Also, `Cc1cccc2cc3ccccc3cc12` please.
Result: 0

Problem: Also, O=C(c1ccc(-c2ccccc2)cc1)C1OC1c1ccccc1 (stereo unspecified) please.
Result: 0

Problem: Also, `O=[N+]([O-])c1cc2c3c(ccc2c2ccccc12)[C@H](O)[C@@H](O)C=C3` please.
Result: 1

Problem: Also, `O=C(ON(OCc1ccccc1)C(=O)c1ccccc1)c1cccc([N+](=O)[O-])c1` please.
Result: 1

Problem: Also, `C[C@]12C=CC3=C4CCC(=O)C=C4CC[C@H]3[C@@H]1CC[C@@H]2O` please.
Result: 0

Problem: Also, `c1cc2c3oc3cc3ccc4c5oc5cc1c4c32` please.
Result: 1

Problem: Also, `CS(C)=O` please.
Result: 0

Problem: Also, `Cc1cc(C)c2c(ccc3ccccc32)c1` please.
Result: 0
